- Tested on: MDA-MB-231 breast
- Measurement Protocol: NCI tumour cell line growth inhibition, 48 h
Each record here notes measured TGI.
Express your answer in µM, writing the number without its unit.

Query string: State its TGI: CC(C)(C)c1c2c(c(C(C)(C)C)c3c1OCN(Cc1ccccc1)C3)OCN(Cc1ccccc1)C2
Result string: 29.3

Query string: State its TGI: COc1ccc(/C=C2\CCC/C(=C\c3ccc(O)c(CN4CCCCC4)c3)C2=O)cc1
Result string: 35.2

Query string: State its TGI: COc1cc([C@@H]2C[C@H]2c2cc(SC)n[nH]2)cc(OC)c1OC
Result string: 33.2

Query string: State its TGI: O=C1C=CC(=O)c2c1ccc1c3ccccc3n(-c3ccccc3[N+](=O)[O-])c21
Result string: 7.88

These measurements were taken from PubChem BioAssay (NCI).
